PROCEDURE DETAILS: Percent of oral bioavailability up to 1000 mg/day
Assay type: ADME, organism-based
TEST CONDITIONS: eutheria, in vivo
ENDPOINT NAME: bioavailability
Form entry: enter the amount, then its unit.

Fill in the blank: the reported bioavailability of `N[C@@H](Cc1ccc(O)c(O)c1)C(=O)O` is ____.
33%
